We begin with a simple list: items and their reported growth inhibition.
# measurement-protocol: NCI Yeast Anticancer Drug Screen. Data for the rad50EPP+ strain (AID 151);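 note: 0% = growth of vehicle-treated control cultures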
# conditions-used: S. cerevisiae rad50 mutant strain, at 3.7 µM, hits give high values
Compounds without any hit were thinned out: in the full panel of roughly 79,000, 15% have a hit.
I only need the number, in %, no unit after it.

compound	growth inhibition / %
O=C(/C=C\c1cccc(C(F)(F)F)c1)c1ccccc1	0
NC(=O)c1c([N+](=O)[O-])cc(C(F)(F)F)cc1[N+](=O)[O-]	5
Cc1nc(Nc2ccccc2[N+](=O)[O-])sc1C(=O)CC(=O)C(=O)Nc1c(C(C)C)cccc1C(C)C	17

Now for a further compound.
Query block: Quick one: growth inhibition of CCOc1c(N=Nc2ccccc2OC)c(C)nn1C(=S)S ?
Result block: 14

* * *

# measurement-protocol: NCI Yeast Anticancer Drug Screen. Data for the rad50EPP+ strain (AID 151);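 note: 0% = growth of vehicle-treated control cultures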
# conditions-used: S. cerevisiae rad50 mutant strain, at 33.0 µM, hits give high values
About 79,000 compounds went through this panel and 15% of them were active in at least one assay; those are over-represented in the sample as a whole.
Documented growth inhibition across a set of compounds
All answers are understood in %, so give the number only.

Recorded growth inhibition, per entry:
compound	uom	growth inhibition
O=C1NC(=O)c2ccc([N+](=O)[O-])c3cccc1c23	%	78
Nc1ccn(C2OC(COP(=O)(O)O)C(O)C2O)c(=O)n1 (stereo not drawn)	%	37
CCC(C)(C)c1ccc(Oc2cccc(C(=O)O)c2)cc1	%	42
O=c1ssc(=Nc2ccccc2)n1-c1ccccc1	%	32

Query block: Endpoint output: growth inhibition of Cc1ccccc1N=C(NO)c1ccccc1 . Value?
Result block: 42

Query block: What does the data say about its growth inhibition? Entry: COC1=C(OC)C(=O)C(Sc2ccc3ccccc3c2)=CC1=O
Result block: 95

Query block: Fill in the blank: the reported growth inhibition of CSc1nc(C)c(CCOC(C)=O)c(N=P(c2ccccc2)(c2ccccc2)c2ccccc2)n1 is ____.
Result block: 1

Query block: Entry CCOC(=O)C(C(=O)OCC)=P(c1ccccc1)(c1ccccc1)c1ccccc1 has what growth inhibition?
Result block: -1

* * *

# measurement-protocol: NCI Yeast Anticancer Drug Screen. Data for the mec2-1 strain (AID 157)
# conditions-used: S. cerevisiae mec2-1 strain, at 100.0 µM, hits give high values
This is part of a sample that, as a whole, favours compounds with a hit. Of some 79,000 tested, about 15% had one in any assay.
assay-metric: growth inhibition (%)
Write down the numeric answer in % and omit the unit.

Answered cases to consult:
compound	assay-metric	value-observed
O=C(CSC(=S)N1CCCCC1)Nc1nc2c(s1)CCCC2	growth inhibition	79
O=C(NO)Nc1cc(Cl)cc(Cl)c1	growth inhibition	98
CC12C(=O)OC(=O)C(c3ccccc31)c1ccccc12	growth inhibition	-2
CN(C)CCCCN1c2ccccc2Sc2ccc(N=[N+]=[N-])cc21	growth inhibition	99
O=C1Nc2ccc(Br)cc2C1=Nc1ccc2c(c1)OCO2	growth inhibition	-40
Cc1cc(C)c(NC(=S)NC(=O)c2ccccc2)cc1C	growth inhibition	-11
Oc1ccc(O)c(Cc2ccccc2)c1	growth inhibition	100
CSc1nc(C)c(CCOC(C)=O)c(N=P(c2ccccc2)(c2ccccc2)c2ccccc2)n1	growth inhibition	90
c1ccc(CCN2CCc3ccccc3C2)cc1	growth inhibition	8
CCN(CC)CCNc1ccc([N+](=O)[O-])c2nc3ccccc3c(N)c12	growth inhibition	0

Query block: Value lookup for growth inhibition; key = CCCCc1nnc(NS(=O)(=O)c2ccc(C)cc2)s1
Result block: 81

Query block: Consider the compound C(=Nc1ccc(-c2cc(-c3ccccc3)nc3ccc4ccccc4c23)cc1)c1ccccc1 and give its measured growth inhibition.
Result block: 31

Query block: Please look up its growth inhibition: CCN(CC)CCNc1ccc2ncn3c4cc(OC)c(OC)c(=O)c4c(O)c1c23
Result block: 11

Query block: Recorded growth inhibition of CC1SC2(C(=O)Nc3ccc(Cl)cc32)N(c2ccc(Cl)cc2)C1=O (stereo not given) , please.
Result block: 98

Query block: Recorded growth inhibition for CSc1nnc(SC)nn1 , please?
Result block: 99

Query block: Would you mind telling me what growth inhibition value was observed for NCCNCCNc1ccc(NCCNCCN)c2c1C(=O)c1c(O)ccc(O)c1C2=O ?
Result block: 31

Query block: Which growth inhibition is listed for COc1cc(/C=N/Nc2nnc3c4ccccc4c4ncccc4c3n2)cc(OC)c1OC ?
Result block: 11

Query block: Suppose we examine the compound CS(=O)(=O)SCc1ccc([N+](=O)[O-])cc1 ; what growth inhibition value has been reported?
Result block: 97

Query block: Dear colleague, I am looking for the recorded growth inhibition of the following compound: Oc1ccc2ccccc2c1CCc1c(O)ccc2ccccc12
Result block: 90

Query block: growth inhibition lookup needed for CCCCCCCCCCCC1=NCCO1 , thanks.
Result block: 99

* * *

# measurement-protocol: NCI Yeast Anticancer Drug Screen. Data for the wt1 strain (AID 149);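 note: 0% = growth of vehicle-treated wt1 cultures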
# conditions-used: S. cerevisiae wt1 strain (SPY 50644) growth inhibition; at 3.7 µM; hits give high values
Compounds without any hit were thinned out: in the full panel of roughly 79,000, 15% have a hit.
A collection of molecules and their measured growth inhibition
Your answer should be a plain number; it is taken to be in %.

molecule	uom	growth inhibition
CC(/C=C/c1ccccc1)=N\NC(N)=S	%	-5

Query block: Sample O=c1[nH]c(-c2ccccc2)nc2c1sc1nc3ccccc3n12 — what was its growth inhibition?
Result block: -25

Query block: Please report the recorded growth inhibition for CN(C)c1ccc(N=Nc2ccncc2)cc1 .
Result block: -3

Query block: Which growth inhibition reading was recorded for the molecule COC1=C(N)C(=O)c2nc(-c3nc(C(=O)O)c(C)c(-c4ccc(OC)c(OC)c4O)c3N)ccc2C1=O ?
Result block: 99

* * *

# measurement-protocol: NCI Yeast Anticancer Drug Screen. Data for the mec2-1 strain (AID 157)
# conditions-used: S. cerevisiae mec2-1 strain, at 100.0 µM
The panel holds about 79,000 compounds, 15% with a hit somewhere; the sample as a whole holds those more often. The source made the active and inactive calls. Cut-off read from the data, not from the text of the source: active = growth inhibition above about 70%; inactive = the rest.
API: response.call in true = active, false = inactive

Study these solved cases before continuing.
compound	classification
COc1cc([C@@H]2c3cc4c(cc3[C@H](OC3OC5COC(C(C)C)OC5C(O)C3O)C3COC(=O)[C@@H]32)OCO4)cc(OC)c1O (stereo not given in full)	false
CC[N+](CC)(CC)c1ccccc1	false
Cc1ccc(CC2(OCCN(C)C)CCC(C(C)(C)C)CC2)cc1 (stereo not given)	true
NC(=O)C(=O)NNc1ccccc1	true

Query block: Entry CN(C)[C@@H]1C(=O)C(C(N)=O)=C(O)[C@@]2(O)C(=O)C3=C(O)c4c(O)cccc4C[C@H]3C[C@@H]12 : call = ?
Result block: true

* * *

# measurement-protocol: NCI Yeast Anticancer Drug Screen. Data for the rad18 strain (AID 177)
# conditions-used: S. cerevisiae rad18 mutant growth inhibition; at 3.7 µM; hits give high values
The panel holds about 79,000 compounds, 15% with a hit somewhere; the sample as a whole holds those more often.
assay-metric: growth inhibition (%)
Write the number in % without appending the unit.

structure-as-smiles	uom	growth inhibition
CCCCCCCCCCCC1=NCCO1	%	8
O=C(CC(=O)n1nc(-c2ccccc2)c(N=Nc2ccc(Cl)cc2)c1-c1ccccc1)Nc1cccc(Cl)c1	%	-4
Nc1cc(N)c(N=Nc2cccc3c(S(=O)(=O)O)cccc23)cc1N=Nc1cc([N+](=O)[O-])ccc1O	%	-28
Cc1cc2c(cc1C)[n+]([O-])c(-c1nc3ccccc3s1)c(N)[n+]2[O-]	%	20

# input for lookup
Query block: So what does the record say about growth inhibition for CN(C)c1ccc(N=Nc2ccncc2)cc1 ?
Result block: 24

* * *

# measurement-protocol: NCI Yeast Anticancer Drug Screen. Data for the wt2 strain (AID 169);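 note: 0% = growth of vehicle-treated yeast cultures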
# conditions-used: S. cerevisiae wt2 strain growth inhibition; at 100.0 µM
The panel holds about 79,000 compounds, 15% with a hit somewhere; the sample as a whole holds those more often. Active and inactive are the calls of the source. No stated cut-off is given here; in the data, active means growth inhibition above about 70%; inactive means the rest.
Give one outcome, nothing more. List: active, inactive

molecule	classification
Cc1cc(C(C)(C)C)c(OCCCN2CCOCC2)c(C(C)(C)C)c1	active
O=[N+]([O-])c1ccc2c(c1)/C(=N/N=C1c3ccccc3Cc3ccccc31)c1cc([N+](=O)[O-])cc([N+](=O)[O-])c1-2	active
CC(C)CCCC(C)C1CCC2C3CCC4=CC(=O)/C(=C\O)CC4(C)C3CCC12C (stereo unspecified)	inactive
O=C1CSC(c2cccc(Cl)c2)N1c1ccc(-c2ccc(-n3c(-c4ccccc4)nc4ccccc4c3=O)cc2)cc1 (stereo unspecified)	inactive

Query block: For Cc1c(C)c(C)c(CSC(=N)N)c(C)c1C , which call appears in the assay record?
Result block: active

Query block: Look up the recorded call for O=[N+]([O-])c1cc[n+]([O-])cc1 in this test.
Result block: active

Query block: Lab log entry: O=[N+]([O-])c1cccc2nc3ccccc3c(NCCCn3ccnc3[N+](=O)[O-])c12 — outcome as called in the assay?
Result block: active

Query block: What did this assay record as the result for CCCCCCOC(=O)NCCOC(=O)Nc1ccccc1 ?
Result block: inactive

Query block: What was the test verdict on NC(=S)NC(=S)Nc1ccccc1 ?
Result block: inactive

Query block: Record request — test call for Oc1cccc2cc(Cl)cnc12
Result block: active

Query block: # fetch the recorded call for O=P(NC1CCCCC1)(OCc1ccccc1)OCc1ccccc1 here
Result block: inactive
